- experimental.target: T1, CEACAM1-Ig fusion protein (extracellular portion of CEACAM1 fused to the Fc portion of human IgG1) (human, UniProt P13688 35-428)
- T1 construct: extracellular domain; Made in COS-7 cells, purified on protein G. A silent nucleotide change (A885G, glycine 281 unchanged) removes a BamHI site; also called CCM1-Ig; soluble CEACAM1-Ig; not shown: Fc portion of human IgG1
- T1 sequence (looked up): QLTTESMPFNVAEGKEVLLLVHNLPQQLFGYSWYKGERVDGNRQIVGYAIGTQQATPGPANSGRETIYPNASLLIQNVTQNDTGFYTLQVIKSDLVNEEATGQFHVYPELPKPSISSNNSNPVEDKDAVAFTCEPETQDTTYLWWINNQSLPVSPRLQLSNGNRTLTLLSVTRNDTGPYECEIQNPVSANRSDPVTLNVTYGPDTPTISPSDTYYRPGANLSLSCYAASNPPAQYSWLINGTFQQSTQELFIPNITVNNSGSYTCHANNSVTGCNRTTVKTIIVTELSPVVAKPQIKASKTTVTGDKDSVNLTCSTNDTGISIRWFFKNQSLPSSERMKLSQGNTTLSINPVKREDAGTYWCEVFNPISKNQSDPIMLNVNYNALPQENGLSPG
- assay.comment: flow cytometry on 721.221 transfectants
outcome.measure: binding result

>>> observed("CCM6-SL43,44RQ (CEACAM6 with R and Q at positions 43 and 44 instead of S and L) (receptor, human, UniProt P40199 35-320, looked up, whole, on cells; also called CEACAM6-SL43,44RQ) KLTIESTPFNVAEGKEVLLLAHNLPQNRIGYSWYKGERVDGNRQIVGYVIGTQQATPGPAYSGRETIYPNASLLIQNVTQNDTGFYTLQVIKSDLVNEEATGQFHVYPELPKPSISSNNSNPVEDKDAVAFTCEPEVQNTTYLWWVNGQSLPVSPRLQLSNGNMTLTLLSVKRNDAGSYECEIQNPASANRSDPVTLNVLYGPDVPTISPSKANYRPGENLNLSCHAASNPPAQYSWFINGTFQQSTQELFIPNITVNNSGSYMCQAHNSATGLNRTTVTMITVSG")
"binds"

Source: patent US9731036
